System: NCI-H1341 complex spheroids, percent test/control
procedure_summary: Anticancer human tumor NCI-H1341 cell line growth inhibition [AhR]; active means viability on the fitted dose curve at most 10% of control; inactive means the rest;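 further: spheroids exposed to agents for seven days before readout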
measurement_context: second compound 3.16 µM; first compound 10 µM
Outcome codes: active, inactive

INSERT INTO assay_data (molecule, measured_target, qualitative_label) VALUES
  ('O=C(c1cc(Cc2n[nH]c(=O)c3ccccc23)ccc1F)N1CCN(C(=O)C2CC2)CC1 + Cc1ccccc1N=Nc1ccc(NC(=O)c2ccnn2C)c(C)c1', 'NCI-H1341 complex spheroids, percent test/control', 'inactive'),
  ('COc1cccc2c1C(=O)c1c(O)c3c(c(O)c1C2=O)CC(O)(C(=O)CO)CC3OC1CC(N)C(O)C(C)O1 (stereo not drawn) + Cc1ccccc1N=Nc1ccc(NC(=O)c2ccnn2C)c(C)c1', 'NCI-H1341 complex spheroids, percent test/control', 'active'),
  ('COc1cc(Nc2ncc3c(n2)-c2ccc(Cl)cc2C(c2c(F)cccc2OC)=NC3)ccc1C(=O)O + Cc1ccccc1N=Nc1ccc(NC(=O)c2ccnn2C)c(C)c1', 'NCI-H1341 complex spheroids, percent test/control', 'inactive'),
  ('COc1ccc([C@@H](O)c2cc(-c3ncnc4cc(N5CCOCC5)ccc34)c(F)cc2Cl)nn1 + CC(CO)NC(=O)c1cc(-c2ccc(Cl)cc2)nn(-c2cnn(C)c2)c1=O', 'NCI-H1341 complex spheroids, percent test/control', 'active'),
  ('CC(C)c1c(-c2ccccc2)nc2c(C#N)c[nH]n2c1=O + Cc1cncc(-c2nc(NCCc3c[nH]c4ccccc34)c3ncn(C(C)C)c3n2)c1', 'NCI-H1341 complex spheroids, percent test/control', 'inactive'),
  ('CC(C)c1c(-c2ccccc2)nc2c(C#N)c[nH]n2c1=O + CC(CO)NC(=O)c1cc(-c2ccc(Cl)cc2)nn(-c2cnn(C)c2)c1=O', 'NCI-H1341 complex spheroids, percent test/control', 'inactive'),
  ('COc1cc(C2c3cc4c(cc3C(OC3OC5COC(C)OC5C(O)C3O)C3COC(=O)C23)OCO4)cc(OC)c1O (stereo not drawn) + CC(CO)NC(=O)c1cc(-c2ccc(Cl)cc2)nn(-c2cnn(C)c2)c1=O', 'NCI-H1341 complex spheroids, percent test/control', 'inactive'),
  ('COc1cc(C2c3cc4c(cc3C(OC3OC5COC(C)OC5C(O)C3O)C3COC(=O)C23)OCO4)cc(OC)c1O (stereo not drawn) + Cc1ccccc1N=Nc1ccc(NC(=O)c2ccnn2C)c(C)c1', 'NCI-H1341 complex spheroids, percent test/control', 'inactive'),
  ('COc1cccc2c1C(=O)c1c(O)c3c(c(O)c1C2=O)CC(O)(C(=O)CO)CC3OC1CC(N)C(O)C(C)O1 (stereo not drawn) + Cc1cncc(-c2nc(NCCc3c[nH]c4ccccc34)c3ncn(C(C)C)c3n2)c1', 'NCI-H1341 complex spheroids, percent test/control', 'active'),
  ('Nc1ccccc1NC(=O)c1ccc(CNC(=O)OCc2cccnc2)cc1 + Cc1ccccc1N=Nc1ccc(NC(=O)c2ccnn2C)c(C)c1', 'NCI-H1341 complex spheroids, percent test/control', 'active'),
  ('CC1(C)CCC(CN2CCN(c3ccc(C(=O)NS(=O)(=O)c4ccc(NCC5CCOCC5)c([N+](=O)[O-])c4)c(Oc4cnc5[nH]ccc5c4)c3)CC2)=C(c2ccc(Cl)cc2)C1 + Cc1cncc(-c2nc(NCCc3c[nH]c4ccccc34)c3ncn(C(C)C)c3n2)c1', 'NCI-H1341 complex spheroids, percent test/control', 'inactive'),
  ('Nc1ccn(C2OC(CO)C(O)C2(F)F)c(=O)n1 (stereo not drawn) + Cc1ccccc1N=Nc1ccc(NC(=O)c2ccnn2C)c(C)c1', 'NCI-H1341 complex spheroids, percent test/control', 'inactive'),
  ('COc1cccc2c1C(=O)c1c(O)c3c(c(O)c1C2=O)CC(O)(C(=O)CO)CC3OC1CC(N)C(O)C(C)O1 (stereo not drawn) + CC(CO)NC(=O)c1cc(-c2ccc(Cl)cc2)nn(-c2cnn(C)c2)c1=O', 'NCI-H1341 complex spheroids, percent test/control', 'active');
